molecular target: Bcl-2-like protein 10 (Homo sapiens); experiment: TR3 peptide-Bcl-B binding displacers, biochemical primary FP assay, phenotype converters (AID 1240); details: GST-Bcl-B / FITC-TR3 peptide fluorescence polarization; stronger effect = higher value; compound at 3.75 mg/L;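 further: 0% = Bcl-B with tracer peptide and DMSO and 100% = tracer peptide lacking Bcl-B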
The whole screen tested about 50,000 compounds, of which about 800 (1.6%) showed an effect of 50% or more. The full list was thinned out, with strong results kept by preference.
measured-metric: displacement (%)
# output: bare number, implied unit %

In the examples that follow, each entry is paired with its recorded displacement.
- molecule: "O=c1/c(=C\\c2ccc(OCc3cccc4ccccc34)cc2)sc2nc3ccccc3n12"
  target: "Bcl-2-like protein 10 (Homo sapiens)"
  unit-of-measure: "%"
  displacement: 11.6
- molecule: "O=C(O)CCCCCN1C(=O)C(=O)/C(=C(/O)c2ccccc2)C1c1cccc(F)c1 (stereo unspecified)"
  target: "Bcl-2-like protein 10 (Homo sapiens)"
  unit-of-measure: "%"
  displacement: -11.9
- molecule: "COc1cc(/C=c2\\sc3nc4ccccc4n3c2=O)cc(Cl)c1OCc1ccccc1Cl"
  target: "Bcl-2-like protein 10 (Homo sapiens)"
  unit-of-measure: "%"
  displacement: 2.3
- molecule: "N#C/C(=C/c1ccc(Cl)cc1)C(=O)Nc1ccc(O)cc1"
  target: "Bcl-2-like protein 10 (Homo sapiens)"
  unit-of-measure: "%"
  displacement: 7.1
- molecule: "Cc1ccc(N(CC(=O)NC(C)c2ccccc2)S(C)(=O)=O)cc1Cl (stereo unspecified)"
  target: "Bcl-2-like protein 10 (Homo sapiens)"
  unit-of-measure: "%"
  displacement: -1.3
- molecule: "COc1cccc(OCCOc2c(Cl)cc(/C=c3\\sc4nc5ccccc5n4c3=O)cc2OC)c1"
  target: "Bcl-2-like protein 10 (Homo sapiens)"
  unit-of-measure: "%"
  displacement: 92.6
- molecule: "O=C1c2ccccc2-c2onc3ccc(NC4CCCCC4)c1c23"
  target: "Bcl-2-like protein 10 (Homo sapiens)"
  unit-of-measure: "%"
  displacement: 59.4
- molecule: "CCN(CC)CCCCOc1ccc(Cl)cc1C"
  target: "Bcl-2-like protein 10 (Homo sapiens)"
  unit-of-measure: "%"
  displacement: -7.4

Exercise: Fill in the blank: the reported displacement of O=C(NCc1ccccc1)C(O)(c1ccc(F)cc1)c1ccc(F)cc1 is ____.
Solution: -12.1

Exercise: Then Cc1cccc(NC(=O)CN(c2cccc(Cl)c2)S(C)(=O)=O)c1 ?
Solution: 3.9

Exercise: Then O=c1/c(=C\c2ccccc2OCc2cccc3ccccc23)sc2nc3ccccc3n12 ?
Solution: 104

Exercise: Then Oc1ccccc1C=Nc1ccc2c(c1)ncn2-c1ccccc1 ?
Solution: 15.5
